Experiment: Plasma stability, mouse plasma
Settings: Balb C, mouse, Li-heparin plasma
Bridge positions count the residues as written; N and C are the ends. Square brackets hold non-standard residues; d marks the D form. Peptide text beside a SMILES is read from it.

compound: CC(=O)N1CCC[C@H]1C(=O)N[C@@H](CO)C(=O)N[C@@H](CCCNC(=N)N)C(=O)N[C@@H](CC(C)C)C(=O)N[C@@H](CCC(=O)O)C(=O)N[C@H]1CCC(=O)NCCCC[C@H](C(=O)N[C@@H](CCCNC(=N)N)C(=O)N[C@@H](CC(C)C)C(=O)N[C@H](C(=O)N[C@@H](CCC(=O)O)C(N)=O)[C@@H](C)O)NC(=O)[C@H](CCCNC(=N)N)NC(=O)[C@H](CC(C)C)NC(=O)[C@H](CCC(=O)O)NC1=O [SD15808] (Ac-PSRLEEELR[dK]RLTE-NH2; lactam 6-10)
reading.unit: %
remaining at 3 h, 10 µM: 73.7

###

Assay: Pharmacokinetic study in mouse, intravenous bolus, plasma LC-MS/MS, non-compartmental analysis
Conditions: in vivo, iv, AUC0-t, normalized to a dose of 1 mg/kg, given 3 mg/kg i.v.
Bridge positions count the residues as written; N and C are the ends. Peptide text beside a SMILES is read from it.
assay.metric: AUC(0-t) (ng·h/mL)

molecule: CC(=O)N1CCC[C@H]1C(=O)N[C@@H](CO)C(=O)N[C@@H](CCCNC(=N)N)C(=O)N[C@@H](CC(C)C)C(=O)N[C@@H](CCC(=O)O)C(=O)N[C@H]1CCC(=O)NCCCC[C@@H](C(=O)N[C@@H](CCCNC(=N)N)C(=O)N[C@@H](CC(C)C)C(=O)N[C@H](C(=O)N[C@@H](CCC(=O)O)C(N)=O)[C@@H](C)O)NC(=O)[C@H](CCCNC(=N)N)NC(=O)[C@H](CC(C)C)NC(=O)[C@H](CCC(=O)O)NC1=O [SD15341] (Ac-PSRLEEELRKRLTE-NH2; lactam 6-10)
readout.number: 316

###

Assay: Plasma stability, mouse plasma
Details: mouse plasma, 37° C., timepoint 6 h
Bridge positions count the residues as written; N and C are the ends. Square brackets hold non-standard residues; d marks the D form. Peptide text beside a SMILES is read from it.

compound: CC(=O)N1CCC[C@H]1C(=O)N[C@@H](CO)C(=O)N[C@@H](CCCNC(=N)N)C(=O)N[C@@H](CC(C)C)C(=O)N[C@H]1CCC(=O)NCCCC[C@@H](C(=O)N[C@@H](CCCNC(=N)N)C(=O)N[C@@H](CCCNC(=N)N)C(=O)N[C@@H](CC(C)C)C(=O)N[C@H](C(=O)N[C@@H](CCC(=O)O)C(N)=O)[C@@H](C)O)NC(=O)[C@H](CC(C)C)NC(=O)[C@H](CCC(=O)O)NC(=O)[C@H](CCC(=O)O)NC1=O [SD15806] (Ac-PSRLEEELKRRLTE-NH2; lactam 5-9)
Tube 2 (compound concentration): 2.272
//
compound: CC(=O)N1CCC[C@H]1C(=O)N[C@@H](CO)C(=O)N[C@@H](CCCNC(=N)N)C(=O)N[C@@H](CC(C)C)C(=O)N[C@@H](CCC(=O)O)C(=O)N[C@H]1CSSC[C@H](C(=O)N[C@@H](CCCNC(=N)N)C(=O)N[C@@H](CCCNC(=N)N)C(=O)N[C@@H](CC(C)C)C(=O)N[C@H](C(=O)N[C@@H](CCC(=O)O)C(N)=O)[C@@H](C)O)NC(=O)[C@H](CC(C)C)NC(=O)[C@H](CCC(=O)O)NC1=O [SD15807] (Ac-PSRLECEL[dC]RRLTE-NH2; disulfide 6-9)
Tube 2 (compound concentration): 0.804
//
compound: CC(=O)N[C@@H](CO)C(=O)N[C@@H](CCCNC(=N)N)C(=O)N[C@@H](CC(C)C)C(=O)N[C@@H](CCC(=O)O)C(=O)N[C@H]1CC(=O)NCCCC[C@@H](C(=O)N[C@@H](CCCNC(=N)N)C(=O)N[C@@H](CC(C)C)C(=O)N[C@H](C(=O)N[C@@H](CCC(=O)O)C(N)=O)[C@@H](C)O)NC(=O)[C@H](CCCNC(=N)N)NC(=O)[C@H](CC(C)C)NC(=O)[C@H](CCC(=O)O)NC1=O [SD15196] (Ac-SRLEDELRKRLTE-NH2; lactam 5-9)
Tube 2 (compound concentration): 2.008
//
compound: CC(=O)N1CCC[C@H]1C(=O)N[C@@H](CO)C(=O)N[C@@H](CCCNC(=N)N)C(=O)N[C@@H](CC(C)C)C(=O)N[C@@H](CCC(=O)O)C(=O)N[C@H]1CCCCNC(=O)CC[C@@H](C(=O)N[C@@H](CCCNC(=N)N)C(=O)N[C@@H](CC(C)C)C(=O)N[C@H](C(=O)N[C@@H](CCC(=O)O)C(N)=O)[C@@H](C)O)NC(=O)[C@H](CCCNC(=N)N)NC(=O)[C@H](CC(C)C)NC(=O)[C@H](CCC(=O)O)NC1=O [SD15805] (Ac-PSRLEKELRERLTE-NH2; lactam 6-10)
Tube 2 (compound concentration): 1.471
//
compound: CC(=O)N1CCC[C@H]1C(=O)N[C@@H](CO)C(=O)N[C@@H](CCCNC(=N)N)C(=O)N[C@@H](CC(C)C)C(=O)N[C@@H](CCC(=O)O)C(=O)N[C@H]1CCC(=O)NCCCC[C@H](C(=O)N[C@@H](CCCNC(=N)N)C(=O)N[C@@H](CC(C)C)C(=O)N[C@H](C(=O)N[C@@H](CCC(=O)O)C(N)=O)[C@@H](C)O)NC(=O)[C@H](CCCNC(=N)N)NC(=O)[C@H](CC(C)C)NC(=O)[C@H](CCC(=O)O)NC1=O [SD15808] (Ac-PSRLEEELR[dK]RLTE-NH2; lactam 6-10)
Tube 2 (compound concentration): 1.892
//
compound: CC(=O)N[C@@H](CO)C(=O)N[C@@H](CCCNC(=N)N)C(=O)N[C@@H](CC(C)C)C(=O)N[C@@H](CCC(=O)O)C(=O)N[C@@H](CCC(=O)O)C(=O)N[C@@H](CCC(=O)O)C(=O)N[C@@H](CC(C)C)C(=O)N[C@@H](CCCNC(=N)N)C(=O)N[C@H]1CCCCNC(=O)CC[C@@H](C(N)=O)NC(=O)[C@H]([C@@H](C)O)NC(=O)[C@H](CC(C)C)NC(=O)[C@H](CCCNC(=N)N)NC1=O [SD15193] (Ac-SRLEEELRKRLTE-NH2; lactam 9-13)
Tube 2 (compound concentration): 2.443
//
compound: CC(=O)N[C@@H](CO)C(=O)N[C@@H](CCCNC(=N)N)C(=O)N[C@@H](CC(C)C)C(=O)N[C@@H](CCC(=O)O)C(=O)N[C@H]1CCC(=O)NCCCC[C@@H](C(=O)N[C@@H](CCCNC(=N)N)C(=O)N[C@@H](CCCNC(=N)N)C(=O)N[C@@H](CC(C)C)C(=O)N[C@H](C(=O)N[C@@H](CCC(=O)O)C(N)=O)[C@@H](C)O)NC(=O)[C@H](CC(C)C)NC(=O)[C@H](CCC(=O)O)NC1=O [SD15192] (Ac-SRLEEELKRRLTE-NH2; lactam 5-8)
Tube 2 (compound concentration): 1.679
//
compound: CC(=O)N[C@@H](CO)C(=O)N[C@@H](CCCNC(=N)N)C(=O)N[C@@H](CC(C)C)C(=O)N[C@@H](CCC(=O)O)C(=O)N[C@H]1CCC(=O)NCCCC[C@@H](C(=O)N[C@@H](CCCNC(=N)N)C(=O)N[C@@H](CC(C)C)C(=O)N[C@H](C(=O)N[C@@H](CCC(=O)O)C(N)=O)[C@@H](C)O)NC(=O)[C@H](CCCNC(=N)N)NC(=O)[C@H](CC(C)C)NC(=O)[C@H](CCC(=O)O)NC1=O [SD15194] (Ac-SRLEEELRKRLTE-NH2; lactam 5-9)
Tube 2 (compound concentration): 2.256

###

Details: mouse, in vivo, iv, 3 mg/kg, Vss

substance: Ac-PSRLEEELRRRLTE-NH2 [SD14316]
reading.unit: L/kg
Vd: 3.89

###

Assay: Pharmacokinetic study in mouse, intravenous bolus, plasma LC-MS/MS, non-compartmental analysis
Settings: in vivo, iv, 3 mg/kg
Bridge positions count the residues as written; N and C are the ends. Peptide text beside a SMILES is read from it.
assay.metric: MRT inf (min)

compound: CC(=O)N1CCC[C@H]1C(=O)N[C@@H](CO)C(=O)N[C@@H](CCCNC(=N)N)C(=O)N[C@@H](CC(C)C)C(=O)N[C@@H](CCC(=O)O)C(=O)N[C@H]1CCC(=O)NCCCC[C@@H](C(=O)N[C@@H](CCCNC(=N)N)C(=O)N[C@@H](CC(C)C)C(=O)N[C@H](C(=O)N[C@@H](CCC(=O)O)C(N)=O)[C@@H](C)O)NC(=O)[C@H](CCCNC(=N)N)NC(=O)[C@H](CC(C)C)NC(=O)[C@H](CCC(=O)O)NC1=O [SD15341] (Ac-PSRLEEELRKRLTE-NH2; lactam 6-10)
readout.number: 4.5
